# TESTED TARGET: T1, human ActRIIA (human, UniProt P27037 20-135, limits assumed);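 also: solution equilibrium titration: antibodies held at fixed concentration, equilibrated overnight at 4 °C with serially diluted ActR2A or ActR2B, unbound antibody captured on antigen-coated plate, electrochemiluminescence readout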
# T1 construct: antigen in MSD-SET; also called ACVR2A; ActR2A
# T1 sequence (P27037 20-135 limits assumed): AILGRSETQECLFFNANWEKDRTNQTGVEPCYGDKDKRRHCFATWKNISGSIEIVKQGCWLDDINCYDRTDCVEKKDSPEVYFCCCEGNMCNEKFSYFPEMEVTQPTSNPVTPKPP
# EXPERIMENT DESCRIPTION: MSD-SET
QUANTITY MEASURED: Kd (nM)
Expressed in nM, but write only the number.

Known results for binders:
Antibody Bäratatza (antibody, V domains shown, full-length IgG) VH: QVQLVQSGAEVKKPGASVKVSCKASGYTFTSSYINWVRQAPGQGLEWMGTINAVSGSTSYAQKFQGRVTMTRDTSISTAYMELSRLRSDDTAVYYCARSGWFDYWGQGTLVTVSS VL: QSALTQPASVSGSPGQSITISCTGTSSDVGSYNYVNWYQQHPGKAPKLMIYGVSKQQSGVSNRFSGSKSGNTASLTISGLQAEDEADYYCGTFAGGSYYGVFGGGTKLTVL :: 0.023
Antibody Hefaknöpfla (antibody, V domains shown, full-length IgG) VH: QVQLVQSGAEVKKPGASVKVSCKASGYTFTSSYINWVRQAPGQGLEWMGTINAVSGSTSYAQKFQGRVTMTRDTSISTAYMELSRLRSDDTAVYYCARGGWFDYWGQGTLVTVSS VL: QSALTQPASVSGSPGQSITISCTGTSSDVGSKNYVNWYQQHPGKAPKLMIYGVSKRESGVSNRFSGSKSGNTASLTISGLQAEDEADYYCGTFAGGKYYGVFGGGTKLTVL :: 0.015

GET /values?readout=Kd&item= Antibody Duuranad (antibody, V domains shown, full-length IgG) VH: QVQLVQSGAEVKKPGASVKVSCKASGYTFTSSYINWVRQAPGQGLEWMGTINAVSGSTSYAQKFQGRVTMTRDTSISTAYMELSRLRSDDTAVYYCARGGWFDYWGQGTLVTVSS VL: QSALTQPASVSGSPGQSITISCTGTSSDVGSFNYVNWYQQHPGKAPKLMIRGVSKRESGVSNRFSGSKSGNTASLTISGLQAEDEADYYCGTFAGGAYYGVFGGGTKLTVL
0.009
